System: hSC-CMs (Cor.4U Cardiomyocytes)
experimental-protocol: CardioExcyte 96 impedance and EFP recording (beating rate, base impedance)
Type: cell-based, human
condition-set: 0.1 µM, 24h; vs baseline before drug (taken as 100%)
assay-readout: BR

[
  {
    "compound": "CC1=C(C(=O)Nc2cc3cn[nH]c3cc2F)C(c2ccc(C(F)(F)F)cc2)CC(=O)N1 (stereo not shown)",
    "measured-target": "hSC-CMs (Cor.4U Cardiomyocytes)",
    "assay-readout": "BR",
    "result-number": 106
  },
  {
    "compound": "O=C(NCc1cccc(O)c1)Nc1nc(-c2ccncc2)cs1",
    "measured-target": "hSC-CMs (Cor.4U Cardiomyocytes)",
    "assay-readout": "BR",
    "result-number": 101
  },
  {
    "compound": "CCOC(=O)c1cnc2ccc(-c3cncc(NS(=O)(=O)c4ccccc4)c3)cn12",
    "measured-target": "hSC-CMs (Cor.4U Cardiomyocytes)",
    "assay-readout": "BR",
    "result-number": 89
  },
  {
    "compound": "Cc1cc(C(C)Nc2ccccc2)c2nc(N3CCOCC3)cc(=O)n2c1 (stereo not shown)",
    "measured-target": "hSC-CMs (Cor.4U Cardiomyocytes)",
    "assay-readout": "BR",
    "result-number": 94
  }
]
